MEASURED TARGET: T1, Saro_0803 A87R (Novosphingobium aromaticivorans DSM …, UniProt Q2GA75 1-157, A87R)
T1 sequence: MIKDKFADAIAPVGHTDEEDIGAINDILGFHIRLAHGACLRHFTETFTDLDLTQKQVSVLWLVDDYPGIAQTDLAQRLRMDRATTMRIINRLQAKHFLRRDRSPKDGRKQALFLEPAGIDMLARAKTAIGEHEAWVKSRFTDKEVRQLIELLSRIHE
MEASUREMENT PROTOCOL: ITC; 5% DMSO; ITC: 50 mM Tris-HCl pH 8.0, 200 mM NaCl, 5% DMSO, 25 °C, 20 µM protein, 200 µM DNA; EMSA: 5.0 µM DNA (annealed in 50 mM Tris-HCl pH 8.0, 200 mM NaCl), 37 °C 30
CONDITIONS: protein: recombinant; tags: His-tag; chain copies: 2
MEASURED PROPERTY: Kd

BINDER	RESULT
nov1p22bp (dsDNA) DNA 1: TAATTGTTAGCAATACATACAA DNA 2: TTGTATGTATTGCTAACAATTA	~1.16 µM
